test system: Rattus norvegicus; assay: Maximum fall in blood pressure was evaluated at an oral dose of 10.0 mg/kg in (SHR) spontaneous hypertensive rats; type: functional
reported-property: Max fall in blood pressure (%)
Numeric answer only, unit % assumed.

Use these answered entries as a reference point.
>  <compound>
CC1(C)Oc2ccc(C#N)cc2C(N2CCN(C(=O)c3ccccc3)CC2=O)[C@@H]1O (stereo not given in full)

>  <Max fall in blood pressure / %>
14

$$$$
>  <compound>
CC1Oc2ccc([N+](=O)[O-])cc2C(N2CCCC2=O)[C@@H]1O (stereo not given in full)

>  <Max fall in blood pressure / %>
34

$$$$
>  <compound>
CC(=O)c1ccc2c(c1)C(N1CCN(C(=O)c3ccc(F)cc3)CC1=O)[C@H](O)C(C)(C)O2 (stereo not given in full)

>  <Max fall in blood pressure / %>
16

$$$$
>  <compound>
COC(=O)C1=C(C)NC(C)=C(C(=O)OC)C1c1ccccc1[N+](=O)[O-]

>  <Max fall in blood pressure / %>
36

$$$$
>  <compound>
CC1(C)Oc2ccc(C#N)cc2C(N2OCCC2=O)[C@@H]1O (stereo not given in full)

>  <Max fall in blood pressure / %>
19

$$$$

Query: Give its Max fall in blood pressure value. Item: CC1(C)Oc2ccc(C=O)cc2C(N2CCCC2=O)[C@@H]1O (stereo not given in full)
Response: 25

Query: So what's the measured Max fall in blood pressure for this one? CC1(C)Oc2ccc(C#N)cc2[C@@H](N2CCCC2=O)[C@@H]1O (single isomer, unassigned)
Response: 46

Query: Given the entry `CC1(C)C=C(N2CCCC2=O)c2cc(Cl)ccc2O1` , report its measured Max fall in blood pressure.
Response: 36

Query: Could you tell me which Max fall in blood pressure is on file for O=C1CCCN1C1c2cc([N+](=O)[O-])ccc2OC[C@H]1O (stereo not given in full) ?
Response: 5

Query: Quick one: Max fall in blood pressure for CC1(C)Oc2ccc(C#N)cc2C(N2CCCCCCC2=O)[C@@H]1O (stereo not given in full) ?
Response: 11

====

Overview of reported Max fall in blood pressure across a group of compounds:
system: Rattus norvegicus; assay: Maximum fall in blood pressure was evaluated at an oral dose of 0.1 mg/kg in (SHR) spontaneous hypertensive rats; type: functional
Express your answer in %, writing the number without its unit.

Example cases with answers are listed next.
>  <compound>
CC(=O)Nc1cc2c(cc1[N+](=O)[O-])C(N1CCCC1=O)[C@H](O)C(C)(C)O2 (stereo not given in full)

>  <Max fall in blood pressure / %>
37

$$$$
>  <compound>
CC1(C)Oc2ccc(C#N)cc2C(N2CCCCC2=O)[C@@H]1O (stereo not given in full)

>  <Max fall in blood pressure / %>
46

$$$$
>  <compound>
CC1(C)Oc2ccc(C#N)cc2C(N2CCCC2)[C@@H]1O (stereo not given in full)

>  <Max fall in blood pressure / %>
8

$$$$
>  <compound>
CC1(C)Oc2ccc(C#N)cc2C(N2CCCC2=O)[C@@H]1O (stereo not given in full)

>  <Max fall in blood pressure / %>
13

$$$$
>  <compound>
CC1(C)Oc2ccc(C#N)cc2C(N2CCCC2=S)[C@@H]1O (stereo not given in full)

>  <Max fall in blood pressure / %>
16

$$$$
>  <compound>
CC1(C)Oc2ccc(C#N)cc2C(N2CCNCC2=O)[C@@H]1O (stereo not given in full)

>  <Max fall in blood pressure / %>
28

$$$$
>  <compound>
CC1(C)Oc2ccc(C#N)cc2C(N2CCCC2=O)C1O (single isomer, unassigned)

>  <Max fall in blood pressure / %>
31

$$$$
>  <compound>
CC1(C)Oc2ccc(C#N)cc2C(N2CCN(Cc3ccccc3)CC2=O)[C@@H]1O (stereo not given in full)

>  <Max fall in blood pressure / %>
10

$$$$
>  <compound>
CN1CCN(C2c3cc(C#N)ccc3OC(C)(C)[C@H]2O)C(=O)C1 (stereo not given in full)

>  <Max fall in blood pressure / %>
20

$$$$

Next, consider the following compound.
Query: Consider the compound shown here: CCCCN1CCN(C2c3cc(C#N)ccc3OC(C)(C)[C@H]2O)C(=O)C1 (stereo not given in full) What is its recorded Max fall in blood pressure?
Response: 18
